A collection of compounds and their measured solubility
Assay: Solubility of Diamine in various kinds of solvents
Format: physicochemical
Details: organic solvent or mixture, thermodynamic from solid; Sample 30 mg/solvent 2 mL; Methanol; read-out: Solubility in Methanol
parameter: solubility

>>> print(df.to_string())
                                   compound   parameter  value_measured
0  Nc1cccc(C(=O)Oc2ccc(S(=O)(=O)c3ccc(OC(=O)c4cccc(N)c4)cc3)cc2)c1 [Example 4, bis[4-(3-aminobenzoyloxy)phenyl]sulfone]  solubility      < 15 mg/mL
1  Cc1cc(OC(=O)c2cccc(N)c2)c(C)c(C)c1OC(=O)c1cccc(N)c1 [Example 8]  solubility      < 15 mg/mL
2  Nc1cccc(C(=O)Oc2ccc(C(c3ccc(OC(=O)c4cccc(N)c4)cc3)(C(F)(F)F)C(F)(F)F)cc2)c1 [Example 2]  solubility      > 15 mg/mL
3  Cc1cc(OC(=O)c2cccc(N)c2)ccc1OC(=O)c1cccc(N)c1 [Example 6]  solubility      < 15 mg/mL
4  Cc1cc(OC(=O)c2ccc(N)cc2)ccc1OC(=O)c1ccc(N)cc1 [Com. Ex. 2, 2,5-bis(4-aminobenzoyloxy)toluene, reference compound]  solubility      < 15 mg/mL

====

A collection of compounds and their measured solubility
Assay: Solubility of Diamine in various kinds of solvents
Type: physicochemical
Settings: organic solvent or mixture, thermodynamic from solid; Sample 30 mg/solvent 2 mL; Acetonitrile; read-out: Solubility in Acetonitrile
parameter: solubility

                                   compound  value_measured
0  Cc1cc(OC(=O)c2cccc(N)c2)ccc1OC(=O)c1cccc(N)c1      > 15 mg/mL
1  Cc1cc(OC(=O)c2ccc(N)cc2)ccc1OC(=O)c1ccc(N)cc1 [Com. Ex. 2, 2,5-bis(4-aminobenzoyloxy)toluene, reference compound]      < 15 mg/mL
2  Nc1ccc(C(=O)Oc2ccc(OC(=O)c3ccc(N)cc3)cc2)cc1 [Com. Ex. 1, 1,4-bis(4-aminobenzoyloxy)benzene, reference compound]      < 15 mg/mL
3  Nc1cccc(C(=O)Oc2ccc(C(c3ccc(OC(=O)c4cccc(N)c4)cc3)(C(F)(F)F)C(F)(F)F)cc2)c1      > 15 mg/mL
4  Cc1cc(OC(=O)c2cccc(N)c2)c(C)c(C)c1OC(=O)c1cccc(N)c1      > 15 mg/mL
5  Nc1cccc(C(=O)Oc2ccc(S(=O)(=O)c3ccc(OC(=O)c4cccc(N)c4)cc3)cc2)c1 [Example 4, bis[4-(3-aminobenzoyloxy)phenyl]sulfone]      < 15 mg/mL

====

Experiment: Solubility of Diamine in various kinds of solvents
Format: physicochemical
Details: MC (methyl cellosolve), organic solvent or mixture, thermodynamic from solid; Sample 30 mg/solvent 2 mL; MC (methyl cello solve); read-out: Solubility in MC
parameter: solubility

>>> print(df.to_string())
                                   molecule   parameter  value_measured
0  Cc1cc(OC(=O)c2cccc(N)c2)ccc1OC(=O)c1cccc(N)c1  solubility      > 15 mg/mL
1  Cc1cc(OC(=O)c2cccc(N)c2)c(C)c(C)c1OC(=O)c1cccc(N)c1  solubility      > 15 mg/mL
2  Nc1cccc(C(=O)Oc2ccc(S(=O)(=O)c3ccc(OC(=O)c4cccc(N)c4)cc3)cc2)c1 [Example 4, bis[4-(3-aminobenzoyloxy)phenyl]sulfone]  solubility      < 15 mg/mL
3  Cc1cc(OC(=O)c2ccc(N)cc2)ccc1OC(=O)c1ccc(N)cc1 [Com. Ex. 2, 2,5-bis(4-aminobenzoyloxy)toluene, reference compound]  solubility      < 15 mg/mL
4  Nc1ccc(C(=O)Oc2ccc(OC(=O)c3ccc(N)cc3)cc2)cc1 [Com. Ex. 1, 1,4-bis(4-aminobenzoyloxy)benzene, reference compound]  solubility      < 15 mg/mL
5  Nc1cccc(C(=O)Oc2ccc(C(c3ccc(OC(=O)c4cccc(N)c4)cc3)(C(F)(F)F)C(F)(F)F)cc2)c1  solubility      > 15 mg/mL
